Can you tell me pKd for the items I'm about to list?
# SYSTEM NAME: CD38 (antigen of the Bioveris affinity determination) (Homo sapiens (Human), UniProt P28907 45-300, limits assumed)
# ASSAY DETAILS: Bioveris, Fab format
Keep it numeric: pKd is minus log10 of the concentration in mol/L.

Provide one value: measured pKd of MOR06190 Fab (Fab, V domains shown, Fab format) VH: QVQLVESGGGLVQPGGSLRLSCAASGFTFSSYYMNWVRQAPGKGLEWVSYINPNGMMTNYADSVKGRFTISRDNSKNTLYLQMNSLRAEDTAVYYCARDLPLVYTGFAYWGQGTLVTVSS VL: DIELTQPPSVSVAPGQTARISCSGDNLRHYYVYWYQQKPGQAPVLVIYGDSKRPSGIPERFSGSNSGNTATLTISGTQAEDEADYYCQTYTGGASLVFGGGTKLTVL
10.31

Note pKd for the binder shown: MOR06184 Fab (Fab, V domains shown, Fab format) VH: QVQLVESGGGLVQPGGSLRLSCAASGFTFSSYYMNWVRQAPGKGLEWVSAISHDGNVKYYADSVKGRFTISRDNSKNTLYLQMNSLRAEDTAVYYCARDLPLVYTGFAYWGQGTLVTVSS VL: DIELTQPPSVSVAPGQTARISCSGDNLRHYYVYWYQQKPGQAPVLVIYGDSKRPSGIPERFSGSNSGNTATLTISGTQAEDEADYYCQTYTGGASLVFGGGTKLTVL
10.18

// fetch pKd given entry MOR06188 Fab (Fab, V domains shown, Fab format) VH: QVQLVESGGGLVQPGGSLRLSCAASGFTFSSYYMNWVRQAPGKGLEWVSAISTNGWQTYYADSVKGRFTISRDNSKNTLYLQMNSLRAEDTAVYYCARDLPLVYTGFAYWGQGTLVTVSS VL: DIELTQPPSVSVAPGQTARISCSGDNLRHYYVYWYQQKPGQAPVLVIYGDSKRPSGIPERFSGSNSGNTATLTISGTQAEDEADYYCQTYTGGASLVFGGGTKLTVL
10.23

Note pKd for the binder shown: MOR06197 Fab (Fab, V domains shown, Fab format) VH: QVQLVESGGGLVQPGGSLRLSCAASGFTFSSYYMNWVRQAPGKGLEWVSAISMDGVYKYYADSVKGRFTISRDNSKNTLYLQMNSLRAEDTAVYYCARDLPLVYTGFAYWGQGTLVTVSS VL: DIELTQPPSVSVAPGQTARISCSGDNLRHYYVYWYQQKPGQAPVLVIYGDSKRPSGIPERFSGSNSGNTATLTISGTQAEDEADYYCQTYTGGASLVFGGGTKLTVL
10.89

Look up and state reported pKd for MOR06187 Fab (Fab, V domains shown, Fab format) VH: QVQLVESGGGLVQPGGSLRLSCAASGFTFSSYYMNWVRQAPGKGLEWVSAISSNGDITYYADSVKGRFTISRDNSKNTLYLQMNSLRAEDTAVYYCARDLPLVYTGFAYWGQGTLVTVSS VL: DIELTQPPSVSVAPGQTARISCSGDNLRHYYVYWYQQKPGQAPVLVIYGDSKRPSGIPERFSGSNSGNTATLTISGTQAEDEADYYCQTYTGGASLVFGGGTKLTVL
10.34
